System: 3T3 mouse fibroblasts
procedure summary: Scratch wound closure
Type: cell-based
condition set: 5 μM, 12 h incubation, mean ± SEM
property: Scratch wound closure at 5 μM, % (%)
Use % as the unit, but write only the number.

Reference set, count: 2
CC[C@H](C(C)C)[C@H](O)[C@@H](O)[C@@H](C)[C@H]1CC[C@H]2[C@@H]3COC(=O)[C@H]4C[C@H](F)CC[C@]4(C)[C@H]3CC[C@]12C :: 15.3
CC(C)[C@H](C)[C@H](O)[C@@H](O)[C@@H](C)[C@H]1CC[C@H]2[C@@H]3COC(=O)[C@H]4C[C@@H](O)[C@H](O)C[C@]4(C)[C@H]3CC[C@]12C :: 13.2

Shift focus to the following entry.
Using the record for CC[C@@H](C(C)C)[C@H](O)[C@@H](O)[C@@H](C)[C@H]1CC[C@H]2[C@@H]3COC(=O)[C@H]4C[C@H](O)[C@H](O)C[C@]4(C)[C@H]3CC[C@]12C , report its Scratch wound closure at 5 μM, %. 30

---

Test system: 3T3 mouse fibroblasts
procedure summary: Fibroblast viability / cytotoxicity assay
Type: cell-based
condition set: read-out: Cell cytotoxicity, IC; MTT, 0.3–30 μM for 4 h
pIC50: −log10 of the molar value.
property: pIC50

Using the record for CC(C)[C@@H](C)[C@@H](O)[C@H](O)[C@@H](C)[C@H]1CC[C@H]2[C@@H]3COC(=O)[C@H]4C[C@H](O)[C@H](O)C[C@]4(C)[C@H]3CC[C@]12C , report its pIC50. < 4.52

---

System: 3T3 mouse fibroblasts
procedure summary: Fibroblast viability / cytotoxicity assay
Type: cell-based
condition set: read-out: Cell cytotoxicity, IC; MTT, 0.3–30 μM for 4 h
pIC50: −log10 of the molar value.
property: pIC50

Reference set, count: 4
CC[C@@H](C(C)C)[C@H](O)[C@@H](O)[C@@H](C)[C@H]1CC[C@H]2[C@@H]3CC(=O)N[C@H]4C[C@H](O)[C@H](O)C[C@]4(C)[C@H]3CC[C@]12C :: < 4.52
CC[C@H](C(C)C)[C@H](O)[C@@H](O)[C@@H](C)[C@H]1CC[C@H]2[C@@H]3COC(=O)[C@H]4C[C@H](F)CC[C@]4(C)[C@H]3CC[C@]12C :: ~4.52
CC[C@@H](C(C)C)[C@H](O)[C@@H](O)[C@@H](C)[C@H]1CC[C@H]2[C@@H]3CNC(=O)[C@H]4C[C@H](O)[C@H](O)C[C@]4(C)[C@H]3CC[C@]12C :: 4.90
CC(C)[C@H](C)[C@H](O)[C@@H](O)[C@@H](C)[C@H]1CC[C@H]2[C@@H]3COC(=O)[C@H]4C[C@@H](O)[C@H](O)C[C@]4(C)[C@H]3CC[C@]12C :: < 4.52

Shift focus to the following entry.
Using the record for CC[C@@H](C(C)C)[C@H](O)[C@@H](O)[C@@H](C)[C@H]1CC[C@H]2[C@@H]3COC(=O)[C@H]4C[C@H](O)[C@H](O)C[C@]4(C)[C@H]3CC[C@]12C , report its pIC50. < 4.52
